# experimental.system: T1, human natriuretic peptide clearance receptor-C (human), P17342
# T1 chain: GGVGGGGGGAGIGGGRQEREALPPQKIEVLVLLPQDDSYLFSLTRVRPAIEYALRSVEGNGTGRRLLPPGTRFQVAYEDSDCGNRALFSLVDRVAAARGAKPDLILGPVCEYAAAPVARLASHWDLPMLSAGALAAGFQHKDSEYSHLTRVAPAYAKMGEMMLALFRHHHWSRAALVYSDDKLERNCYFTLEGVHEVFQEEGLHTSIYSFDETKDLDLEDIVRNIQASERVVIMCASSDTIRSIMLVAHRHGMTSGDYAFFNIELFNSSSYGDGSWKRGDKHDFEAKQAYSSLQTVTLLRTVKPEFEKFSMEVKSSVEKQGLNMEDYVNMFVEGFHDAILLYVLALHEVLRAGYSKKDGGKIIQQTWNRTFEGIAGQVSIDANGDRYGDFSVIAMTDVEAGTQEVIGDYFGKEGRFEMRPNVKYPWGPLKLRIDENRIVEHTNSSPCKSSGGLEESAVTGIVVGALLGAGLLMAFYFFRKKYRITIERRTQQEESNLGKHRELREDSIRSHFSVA
# protocol: competition binding, membranes
# measurement.parameters: chains peptide; modification not given
Listed below: pIC50 values for each entry.
Scale explanation: pIC50 corresponds to minus log10 of a concentration expressed in moles per litre.

binder	pIC50
SLRRSSCFGGRIDRIGAQSGLGCNSFRY [rat ANP]	9.84

Attention now turns to another entry.
Given item SLRRSSCFGGRIDRIREASGLGCNSFRY [ANF 99] , the value recorded as its pIC50 is 6.92

Origin of measurements: patent US6525022B1
